Overview of recorded protein stability index for various variants
B1: RAD51 (parent)
chain: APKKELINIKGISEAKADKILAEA

variants of: B1; assay: protein stability index of a GFP-peptide fusion (GPS, HEK-293T) (PSI 1-6); higher = more stable; conditions: c terminus: a fixed tail appended;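 further: lentivirally expressed fusions sorted by FACS into six bins by GFP to DsRed ratio, PSI derived from sequencing read proportions per bin multiplied by bin number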
Write the value as a bare number.

Request: What protein stability index value was documented for this variant, `K19V` ?
Result: 4.49

Request: Which protein stability index is reported for this variant? `A24P`
Result: 4.91

Request: State the recorded protein stability index for this entry: `P2R`
Result: 4.02

Request: Query (variant): `L6P` ; field requested: protein stability index
Result: 5.31

Request: Form field: reported protein stability index of `A22N`
Result: 4.59

Request: Form field: reported protein stability index of `A22M`
Result: 4.75

Request: Look up protein stability index: `D18V`
Result: 4.07

Request: Entry `P2W` : reported protein stability index = ?
Result: 3.79

Request: I have this variant here, `I12S` , and I need its recorded protein stability index.
Result: 5.27

Request: Sample `K10T` — what was its protein stability index?
Result: 4.68

---
Request: // lookup protein stability index for `A17R`
Result: 4.62

Request: So what does the record say about protein stability index for `K16N` ?
Result: 5.08

Values were extracted from the supplement of paper PMC10567573.
